Below is a list of entries, each paired with its recorded melting point value.

Example molecules with recorded melting point:
INSERT INTO results (molecule, measured_metric, measurement) VALUES
  ('COc1cc(=O)n(-c2cccc(C(F)(F)F)c2)nc1C(C)=O', 'melting point', '136 to 138 °C'),
  ('Cc1c(-c2ccc(OCc3ccccc3)cc2)n(Cc2ccc(OCCCCl)cc2)c2ccc(OCc3ccccc3)cc12', 'melting point', '130 to 132 °C'),
  ('CN(C)C(=O)c1ncn2c1CC(=O)N(c1ccccc1)c1cc(Cl)ccc1-2', 'melting point', '255 to 257 °C'),
  ('Cc1cc2c(cc1C)Sc1cscc1C(=O)N2', 'melting point', '264 to 265 °C');

Field request: melting point | item: O=C(Nc1c(F)cccc1F)c1ccc(-n2nc(C(F)(F)F)cc2C2CC2)nc1
192 to 194 °C

Field request: melting point | item: CCc1cc(-c2ccc(Cl)cc2)nc2c(C(=O)Nc3cccc(S(C)(=O)=O)c3)cnn12
230 to 232 °C

Field request: melting point | item: CCCCCCCCCCCC(=O)NCCCCCC(=O)OO
70 to 75 °C

Field request: melting point | item: CC(=O)NC1CCCC1CC(Cl)C#N (configuration not stated)
114 to 117 °C

Field request: melting point | item: CCCCOc1cc(CNCCCN2CCCCC2)cc(S(N)(=O)=O)c1Cc1ccccc1
98 to 101 °C

###

Below is a list of entries, each paired with its recorded melting point value.

Example molecules with recorded melting point:
INSERT INTO assay_data (molecule, measured_metric, measurement) VALUES
  ('CN(C(=O)NCCCl)c1ccc(C(O)(C(F)(F)F)C(F)(F)F)cc1', 'melting point', '120 to 121 °C'),
  ('COc1cc(C)c(C=CC(C)=CCCC=O)c(C)c1C', 'melting point', '42 to 45 °C'),
  ('CC(C)(C)OC(=O)N1CCc2cc(OCc3ccccc3)c(OCc3ccccc3)cc2C1Cc1ccc(N)c(I)c1 (centres undefined)', 'melting point', '169 to 171 °C');

Field request: melting point | item: COc1ccc(-c2nnc(C(C)C)n2-c2ccc(OC)cc2)cc1
162 °C

Field request: melting point | item: Cc1cc(C(=O)NCO)ncc1C(c1c(F)ccc(F)c1F)S(=O)(=O)c1ccc(OC(F)(F)F)cc1 (centres undefined)
140 to 141 °C

Field request: melting point | item: CCCCCCc1sc(C(N)=O)c2c1-c1nn(C)cc1CC2
194 to 195 °C

###

Below is a list of entries, each paired with its recorded melting point value.

Example molecules with recorded melting point:
INSERT INTO measurements (molecule, measured_metric, measurement) VALUES
  ('CC1(C)c2cc(C#N)ccc2OC1O (stereo not given)', 'melting point', '103 to 122 °C'),
  ('CCOC(=O)C(=O)CC(=O)c1cn(CCCCc2ccccc2)c2ccccc2c1=O', 'melting point', '88 to 90 °C'),
  ('CC(C)(O)c1cccc2ccccc12', 'melting point', '81 to 86 °C'),
  ('CCCCN(C(=O)CCC(=O)O)C1CC(C)(C)N(OC2CCCCC2)C(C)(C)C1', 'melting point', '110 to 113 °C'),
  ('Cc1nc(Sc2ccc([N+](=O)[O-])cc2)nc(C)c1Cl', 'melting point', '110 °C'),
  ('O=C(NC=CCc1cn(C2CC(O)C(CO)O2)c(=O)[nH]c1=O)C(F)(F)F (stereo not given)', 'melting point', '183 to 184 °C'),
  ('CCC1(CC)COP(=O)(Cc2ccc(N)cc2)OC1', 'melting point', '128 to 129 °C'),
  ('CN(C)C(=O)C#C[C@H]1CC[C@H](N(C)C(=O)OC(C)(C)C)CC1', 'melting point', '115 to 117 °C');

Field request: melting point | item: COc1cc(C2=CCCCC2)c(Cl)cc1C(=O)N1Cc2ccc(C(=O)N(C)CC(O)CO)n2Cc2ccccc21 (stereo not given)
155 to 157 °C

Field request: melting point | item: CC1(C)CCC(C)(C)c2cc(C(O)CNc3ccc(C(=O)O)c(O)c3)ccc21 (stereo not given)
165 to 166 °C

Field request: melting point | item: COC(=O)CCCCCCCNC(=O)C(COS(C)(=O)=O)NS(=O)(=O)c1ccc(Cl)cc1 (racemic)
90 to 95 °C

Field request: melting point | item: Cc1ccc(-n2c(-c3ccc(C=Cc4ccccc4)cc3)ccc2-c2ccc(C=Cc3ccccc3)cc2)cc1
297 to 298 °C

Field request: melting point | item: CCCOC(=O)c1ccc2c(c1)S[C@@H](c1ccc(OC)cc1)[C@@H](OC(C)=O)C(=O)N2CCN(C)C (racemic)
114 to 119 °C

Field request: melting point | item: COc1ccc(-n2nc(CO)c3c2CCC3)cc1
88 to 89 °C

Field request: melting point | item: Cn1cc([N+](=O)[O-])nc1C(Cl)Cl
153 °C

Field request: melting point | item: COc1cc2cc(-c3cccnc3)nc(-c3ccccc3)c2cc1OC
176 to 177 °C

Field request: melting point | item: O=C1OCc2c(c3cc(-c4ccc(OC(F)(F)F)cc4)ccc3n2Cc2ccccc2)C1=O
239 to 240 °C
